B1: Membrane-associated guanylate kinase, WW and PDZ domain-containing protein 2, residues 296 to 340; numbered along this chain, Q86UL8 (parent)
chain: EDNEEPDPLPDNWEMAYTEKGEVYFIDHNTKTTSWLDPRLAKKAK

- Variants of: B1
- test-name: abundance fitness (aPCA) (normalised: wild type 0, dead -1); higher = more abundant; growth selection in yeast, the domain comes from the species named
- condition: Homo sapiens
Values of abundance fitness greater than or equal to -0.2 map to MET; values below map to NOT MET.

Reported abundance fitness at or above -0.2? `N29R`
MET

Does `E19K` have a reported abundance fitness of at least -0.2?
MET

Test whether the variant `A16Y` records abundance fitness of -0.2 or higher.
NOT MET

I'd appreciate it if you could say whether `R39G` has abundance fitness at least equal to -0.2.
NOT MET

Has `E22Q` a recorded abundance fitness greater than or equal to -0.2?
MET

Answer whether abundance fitness of `T30L` is greater than or equal to -0.2.
NOT MET

Confirm if abundance fitness reported for the variant `K20G` is -0.2 or above.
MET

Given the entry `E14A` , answer whether its abundance fitness meets or surpasses -0.2.
NOT MET

Decide: is the reported value of abundance fitness for `K42L` equal to or greater than -0.2?
MET
